# experimental-protocol: Pharmacokinetic study in sham and myocardial ischemia model rats after a single oral dose of QSKL (UHPLC-psMS/MS of plasma, non-compartmental analysis)
# run-parameters: male, Sprague-Dawley, rat, plasma, po, 8 g/kg, AUC0→t, model (myocardial ischemia, LAD ligation) rats, single oral dose of 8.0 g/kg QSKL, mean ± SD, n = 6
Assign AUC(0-t) to each entry below.

Illustrative cases are given below, each with its answer.
Could you please provide reported AUC(0-t) for "CC1(C)[C@@H](O)CC[C@]2(C)[C@H]3C(=O)C=C4[C@@H]5C[C@@](C)(C(=O)O)CC[C@]5(C)CC[C@@]4(C)[C@]3(C)CC[C@@H]12" ? Thanks! 5040 ng·h/mL

Could you please provide reported AUC(0-t) for "Cc1coc2c1C(=O)C(=O)c1c-2ccc2c1CCCC2(C)C" ? Thanks! 4.28 ng·h/mL

Consider the record given below.
Could you please provide reported AUC(0-t) for "CC1(C)[C@@H](O[C@H]2O[C@H](C(=O)O)[C@@H](O)[C@H](O)[C@H]2O[C@@H]2O[C@H](C(=O)O)[C@@H](O)[C@H](O)[C@H]2O)CC[C@]2(C)[C@H]3C(=O)C=C4[C@@H]5C[C@@](C)(C(=O)O)CC[C@]5(C)CC[C@@]4(C)[C@]3(C)CC[C@@H]12" ? Thanks! 72.8 ng·h/mL

Each recorded value in this set is attributed to paper PMC6150229.
